Data provenance: ChEMBL document CHEMBL1208760

- Test system: Candida albicans
- ASSAY COMMENT: Antifungal activity against Candida albicans ATCC 10231 assessed as inhibition of fungal growth at 6.25 uM
- Type: functional
- TEST PARAMETERS: read-out: GI
Listed here: items and their measured inhibition of growth at 6.25 µM.
PROPERTY: inhibition of growth at 6.25 µM

• CC[C@H](C)[C@H](NC(=O)[C@H](CCCCN)NC(=O)[C@@H]1CCCN1C(=O)[C@H](CCC(N)=O)NC(=O)[C@@H](N)CCCNC(=N)N)C(=O)N[C@H](Cc1c[nH]c2ccccc12)C(=O)N[C@@H](Cc1ccccc1)C(=O)N1CCC[C@H]1C(=O)N[C@@H](CC(N)=O)C(=O)N[C@@H](CCCNC(=N)N)C(=O)N[C@@H](CCCNC(=N)N)C(=O)N[C@@H](CCCCN)C(=O)N1CCC[C@H]1C(=O)N[C@@H](Cc1c[nH]c2ccccc12)C(=O)N[C@@H](CCCCN)C(=O)N[C@@H](CCCCN)C(N)=O = 0%
• CC(=O)N1CCN(c2ccc(OCC3COC(Cn4ccnc4)(c4ccc(Cl)cc4Cl)O3)cc2)CC1 (centres undefined) = 100%
• CC[C@H](C)[C@H](NC(=O)[C@H](CCCCN)NC(=O)[C@@H](NC(=O)[C@H](CCC(N)=O)NC(=O)[C@@H](N)CCCNC(=N)N)[C@@H](C)CC)C(=O)N[C@@H](Cc1c[nH]c2ccccc12)C(=O)N[C@@H](Cc1ccccc1)C(=O)N[C@@H](CCC(N)=O)C(=O)N[C@@H](CC(N)=O)C(=O)N[C@@H](CCCNC(=N)N)C(=O)N[C@@H](CCCNC(=N)N)C(=O)N[C@@H](CCSC)C(=O)N[C@@H](CCCCN)C(=O)N[C@@H](Cc1c[nH]c2ccccc12)C(=O)N[C@@H](CCCCN)C(=O)N[C@@H](CCCCN)C(N)=O = 0%
• C[C@@H]1[C@H](O)[C@@H](C)/C=C/C=C/C=C/C=C/C=C/C=C/C=C/[C@H](O[C@@H]2O[C@H](C)[C@@H](O)[C@H](N)[C@@H]2O)C[C@@H]2O[C@](O)(C[C@@H](O)C[C@@H](O)[C@H](O)CC[C@@H](O)C[C@@H](O)CC(=O)O[C@H]1C)C[C@H](O)[C@H]2C(=O)O = 100%
